Below: a set of entries, each annotated with reported Binding Long 1:10 PE (Fold blanc).
Measured On: T1, hRSV FTM-NN (membrane anchorless form of the Long fusion protein, 70 kDa) (human respiratory syncytial virus, …, UniProt P12568 26-524)
T1 construct: also called FTM-NN (Long); hRSV FTM-protein
Assay Summary: ELISA on immobilized FTM-NN, periplasmic extract 1:10
The response must be a number in fold blanc with no trailing unit.

Sample records with Binding Long 1:10 PE (Fold blanc):
Nanobody 20B2 (VHH, also called PMP20B2; PR5V20B2) VHH: EVQLVESGGGLVQAGGSLRLSCEASGRTFSSYDMGWFRQAPGKEREFVAAVTRWSGARGVYADSVKGRFTISRDNAENTVHLQMNSLKPEDTAVYTCAADSTNRNSGAVYYTWAYDYWGQGTQVTVSS
3
Nanobody 1G3 (VHH, also called PMP1G3; PRSV1G3) VHH: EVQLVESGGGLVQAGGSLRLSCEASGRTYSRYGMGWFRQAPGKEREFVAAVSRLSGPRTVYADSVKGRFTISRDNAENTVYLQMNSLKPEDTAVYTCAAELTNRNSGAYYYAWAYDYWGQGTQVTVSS
3.4
Nanobody 23E5 (VHH, also called PMP23E5; PRSV23E5) VHH: EVQLMESGGGLVQAGGSLRLSCAASGGTFSSYAMGWFRQAPGEERDFVAAIGWSGNSPYYAQFVKGRFTISRDNAKNTVHLQMNSLKPEDTAVYYCAAAHNTMGSDYEGYDYWGQGTQVTVSS
3.4
Nanobody 8A1 (VHH, also called PMP8A1; PRSV8A1) VHH: EVQLVESGGGLVQPGGSLRVSCAASGFTFNDYIMGWFRQAPGKERMFIAAISGTGTIKYYGDLVRGRFTISRDNAKNTVYLRIDSLNPEDTAVYYCAARQDYGLGYRESHEYDYWGQGTQVTVSS
3.7
Nanobody 13C1 (VHH, also called PMP13C1; PRSV13C1) VHH: EVQLVESGGGLVQPGGSLRLSCEASGFTWDYYVIGWFRQAPGKEREGLSCISSDGSTTYADSVKGRFTISRDNAKNTVYLQMNSLEPEDTAVYYCATDPALGCYSGSYYPRYDYWGQGTQVTVSS
3

Q. // lookup Binding Long 1:10 PE (Fold blanc) for Nanobody 20C1 (VHH, also called PMP20C1; PRSV20C1) VHH: EVQLVESGGGLVQAGGSLRLSCAASGRTFSSFAMGWFRQAPGKEREFVAAISWSGGSTYYADSVKGRFTISGDNAKNTMYLQMNSLKPEDTAVYYCAADSEILNSGAYYYPWAYVYWGQGTQVTVSS
A. 2.7

Q. // lookup Binding Long 1:10 PE (Fold blanc) for Nanobody 1A6 (VHH, also called PMP1A6; PRSV1A6) VHH: EVQLVESGGGLVQAGGSLRLSCAASGRTFSSYAMGWFRQAPGKEREFVAAIWWSGGSTYYADSVKGRFTMSRDNAKNTVYLEMNNLKPEDTAVYYCAADTDSSNSGSYLYTWAYDYWGQGTQVTVSS
A. 4.2

Q. // lookup Binding Long 1:10 PE (Fold blanc) for Nanobody 13A1 (VHH, also called PMP13A1; PRSV13A1) VHH: EVQLVESGGGLVQPGGSLRLSCAASGLTLDYYALGWFRQAPGKEREGVSCISSADHSTTYADSVKGRFTISWDNAKNTVYLQMNSLKPEDTAVYYCAADPALGCYSGNYYPRYDYWGQGTQVTVSS
A. 2.9

Q. // lookup Binding Long 1:10 PE (Fold blanc) for Nanobody 1G8 (VHH, also called PMP1G8; PRSV1G8) VHH: EVQLVESGGGSVQAGGSLRLSCAASGGSFNRFGMGWFRRAPGKERDFVAAINLSGDTTYYVDSVQGRFTISRDNANNIMYLQMNLLKPEDTADYYCAADPDPITAWKQSGAGMDYWGKGTQVTVSS
A. 3.7
